substrate: p-NP-C4; settings: pH 7; 25 °C
metric: Km (µM)

INSERT INTO measurements (protein, metric, recorded_measurement) VALUES
  ('unnamed (protein) MAKKDEHLRKPEWLKIKLNTNENYTGLKKLMRENNLHTVCEEAKCPNIHECWAVRRTATFMILGSVCTRACRFCAVKTGLPTELDLQEPERVADSVALMNLKHAVITAVARDDQKDGGAGIFAETVRAIRRKSPFTTIEVLPSDMGGNYDNLKTLMDTRPDILNHNIETVRRLTPRVRARATYDRSLEFLRRAKEMQPDIPTKSSIMIGLGETKEEIIEVMDDLLANNVDIMAIGQYLQPTKKHLKVQKYYHPDEFAELKEIAMQKGFSHCEAGPLVRSSYHADEQVNEASKKRQAQA', 'Km', 750),
  ('unnamed (protein) MLDMPIDPVYYQLAEYFDSLPKFDQFSSAREYREAINRIYEERNRQLSQHERVERVEDRTIKGRNGDIRVRVYQQKPDSPVLVYYHGGGFVICSIESHDALCRRIARLSNSTVVSVDYRLAPEHKFPAAVYDCYDATKWVAENAEELRIDPSKIFVGGDSAGGNLAAAVSIMARDSGEDFIKHQILIYPVVNFVAPTPSLLEFGEGLWILDQKIMSWFSEQYFSREEDKFNPLASVIFADLENLPPALIITAEYDPLRDEGEVFGQMLRRAGVEASIVRYRGVLHGFINYYPVLKAARDAINQIAALLVFD', 'Km', 40);
